Method notes: Dissociation constant, pKa of the compound
Type: physicochemical
Measured quantity: pKa

• CN1CC[C@@H](NC(=O)Nc2ccc(C#N)cc2)C[C@@H]1c1nc2ccccc2[nH]1 = 6

---

Method notes: Oral bioavailability in dog at 3 mg/kg
Format: ADME, organism-based, Canis lupus familiaris
Cond: in vivo
Measured quantity: bioavailability

• CN1CC[C@@H](NC(=O)Nc2ccc(C#N)cc2)C[C@@H]1c1nc2ccccc2[nH]1 = 68%

---

Method notes: Fraction absorbed in dog at 5 mg/kg, po
Type: ADME, organism-based, Canis lupus familiaris
Parameters: dose 5 mg/kg, route oral
Cond: in vivo
Measured quantity: Fa

- CN1CC[C@@H](NC(=O)c2ccc3c(c2)OCCO3)C[C@@H]1c1nc2ccccc2[nH]1: > 50%

---

Protein target, amino acids: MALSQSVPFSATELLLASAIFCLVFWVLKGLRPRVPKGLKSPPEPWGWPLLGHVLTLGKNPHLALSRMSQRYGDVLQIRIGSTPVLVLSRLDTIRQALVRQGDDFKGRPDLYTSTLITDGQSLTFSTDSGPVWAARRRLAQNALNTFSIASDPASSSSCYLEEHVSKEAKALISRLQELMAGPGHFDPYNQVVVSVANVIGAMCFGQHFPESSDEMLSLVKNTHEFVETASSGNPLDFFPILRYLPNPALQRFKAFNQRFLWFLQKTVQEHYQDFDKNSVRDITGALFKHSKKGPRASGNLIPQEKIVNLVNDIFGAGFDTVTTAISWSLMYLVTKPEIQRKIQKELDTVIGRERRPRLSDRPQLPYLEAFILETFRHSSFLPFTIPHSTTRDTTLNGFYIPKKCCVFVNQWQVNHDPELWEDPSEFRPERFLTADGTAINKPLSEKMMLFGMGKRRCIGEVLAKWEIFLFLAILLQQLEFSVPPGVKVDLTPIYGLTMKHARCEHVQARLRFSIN
Measured quantity: IC50

* CN1CC[C@@H](NC(=O)Nc2ccc(C#N)cc2)C[C@@H]1c1nc2ccccc2[nH]1 [GLASDEGIB] | > 30 µM

---

Method notes: Intrinsic clearance in rat microsomes
Format: ADME, Microsome
Measured quantity: CLint scaled (mL/min/kg)

- CN1CC[C@@H](NC(=O)Nc2ccc(C#N)cc2)C[C@@H]1c1nc2ccccc2[nH]1: 67

---

Target or system: Cytochrome P450 2C9 (Homo sapiens, UniProt P11712)
Sequence (P11712 whole entry): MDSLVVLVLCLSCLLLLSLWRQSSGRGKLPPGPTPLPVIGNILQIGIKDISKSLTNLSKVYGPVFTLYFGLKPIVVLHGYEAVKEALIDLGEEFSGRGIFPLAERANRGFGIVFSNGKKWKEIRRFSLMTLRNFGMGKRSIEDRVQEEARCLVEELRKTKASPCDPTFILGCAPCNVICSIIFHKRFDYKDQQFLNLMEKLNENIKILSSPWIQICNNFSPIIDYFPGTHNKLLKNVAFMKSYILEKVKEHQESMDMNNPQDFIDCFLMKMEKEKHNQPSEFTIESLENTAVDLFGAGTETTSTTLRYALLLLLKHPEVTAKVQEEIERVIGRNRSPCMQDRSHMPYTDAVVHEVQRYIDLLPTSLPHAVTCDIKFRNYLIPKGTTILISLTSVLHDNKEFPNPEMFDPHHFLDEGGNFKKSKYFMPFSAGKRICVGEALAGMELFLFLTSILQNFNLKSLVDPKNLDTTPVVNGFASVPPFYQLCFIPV
pIC50: −log10 of the molar value.
Measured quantity: pIC50

- CN1CC[C@@H](NC(=O)Nc2ccc(C#N)cc2)C[C@@H]1c1nc2ccccc2[nH]1: < 4.52

---

Method notes: Volume of distribution at steady state in dog at 0.5 mg/kg, iv and 3 mg/kg, po
Assay type: ADME, organism-based, Canis lupus familiaris
Cond: in vivo, read-out: Vdss
Measured quantity: Vd (L/kg)

• CN1CC[C@@H](NC(=O)Nc2ccc(C#N)cc2)C[C@@H]1c1nc2ccccc2[nH]1 = 4.3

---

Method notes: Intrinsic clearance in human microsomes
Assay type: ADME, Microsome
Measured quantity: CLint scaled (mL/min/kg)

- CN1CC[C@@H](NC(=O)Nc2ccc(C#N)cc2)C[C@@H]1c1nc2ccccc2[nH]1 [GLASDEGIB]: 6.3

---

Target or system: Cytochrome P450 2C19 (Homo sapiens, UniProt P33261)
Sequence (P33261 whole entry): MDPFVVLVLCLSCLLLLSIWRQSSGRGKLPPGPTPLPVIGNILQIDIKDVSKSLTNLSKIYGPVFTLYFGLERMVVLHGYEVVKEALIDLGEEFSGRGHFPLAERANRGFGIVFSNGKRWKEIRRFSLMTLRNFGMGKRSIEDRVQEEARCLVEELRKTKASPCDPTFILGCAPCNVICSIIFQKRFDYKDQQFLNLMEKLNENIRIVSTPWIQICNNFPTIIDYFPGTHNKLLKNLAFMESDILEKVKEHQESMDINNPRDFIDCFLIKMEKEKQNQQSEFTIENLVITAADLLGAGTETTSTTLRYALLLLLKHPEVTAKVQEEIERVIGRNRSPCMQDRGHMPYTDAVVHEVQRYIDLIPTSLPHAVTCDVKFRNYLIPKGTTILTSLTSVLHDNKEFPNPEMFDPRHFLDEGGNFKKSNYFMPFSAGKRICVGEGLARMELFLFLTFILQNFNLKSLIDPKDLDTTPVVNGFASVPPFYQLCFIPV
Method notes: Inhibition of CYP2C19
Format: ADME
Measured quantity: IC50

- CN1CC[C@@H](NC(=O)Nc2ccc(C#N)cc2)C[C@@H]1c1nc2ccccc2[nH]1: > 30 µM
